Data origin, for the record: patent US5498695A

TEST_SYSTEM: interleukin 1β converting enzyme (ICE) (Homo sapiens, UniProt P29466)
Construct: ICE activity was purified from THP-1 cell lysates by three chromatographic steps; endogenous in cells; host or cells: THP-1 (ATCC-TIB 202) human monocyte cell line; Lysate was purified over G25, Q-Sepharose and MonoQ, then captured on protein A agarose beads carrying anti-ICE antibody
Sequence (P29466 120-297 limits assumed): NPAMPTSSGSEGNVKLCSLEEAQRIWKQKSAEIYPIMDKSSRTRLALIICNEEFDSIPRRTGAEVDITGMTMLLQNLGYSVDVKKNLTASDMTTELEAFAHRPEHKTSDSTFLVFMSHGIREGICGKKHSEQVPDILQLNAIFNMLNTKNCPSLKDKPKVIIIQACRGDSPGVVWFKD
Sequence (P29466 317-404 limits assumed): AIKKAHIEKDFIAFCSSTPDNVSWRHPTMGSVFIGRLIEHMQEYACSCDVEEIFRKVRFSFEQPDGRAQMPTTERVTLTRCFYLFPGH
TEST_PROTOCOL: Spectrophotometric hydrolysis of pNA substrates by immobilized ICE (release of pNA at 405 nM)
Format: biochemical
CONDITION_INFO: first of two rate values printed; 25° C., pH 7, 405 nM; condition that separates the two values not given
Where a SMILES comes first, the peptide text is derived from it. The star is where a group is joined. pNA = O=[N+]([O-])c1ccc(N*)cc1; Cbz = O=C(OCc1ccccc1)*; Boc = CC(C)(C)OC(=O)*
Recorded Increase In Absorbence Rates (mOD/min), first value for the following compounds
Quick reminder: number only, in mOD/min, skip the unit.

stdin: What value of Increase In Absorbence Rates (mOD/min), first value has been reported for the following compound? CC(C)[C@H](NC(=O)OC(C)(C)C)C(=O)N[C@@H](C)C(=O)N[C@@H](CC(=O)O)C(=O)Nc1ccc([N+](=O)[O-])cc1 [Example 4, t-BOCValAlaAsp-p-nitroanilide] (Boc-Val-Ala-Asp-pNA)
stdout: 0.17

stdin: Follow-up entry: CC(=O)N[C@H](C(=O)N[C@@H](C)C(=O)N[C@@H](CC(=O)O)C(=O)Nc1ccc([N+](=O)[O-])cc1)C(C)C [Example 5, AcValAlaAsp-p-nitroanilide] (Ac-Val-Ala-Asp-pNA)
stdout: 0.15

stdin: Same thing, different compound: CC(=O)N[C@@H](Cc1ccc(O)cc1)C(=O)N[C@H](C(=O)N[C@@H](C)C(=O)N[C@@H](CC(=O)O)C(=O)Nc1ccc([N+](=O)[O-])cc1)C(C)C
stdout: 0.21

stdin: Input CC(C)[C@H](NC(=O)OCc1ccccc1)C(=O)N[C@@H](C)C(=O)N[C@@H](CC(=O)O)C(=O)Nc1ccc([N+](=O)[O-])cc1 [Example 6, CBZValAlaAsp-p-nitroanilide] (Cbz-Val-Ala-Asp-pNA)
stdout: 0.18

----------
TEST_SYSTEM: interleukin 1β converting enzyme (ICE) (Homo sapiens)
Construct: ICE activity was purified from THP-1 cell lysates by three chromatographic steps; endogenous in cells; host or cells: THP-1 (ATCC-TIB 202) human monocyte cell line; Lysate was purified over G25, Q-Sepharose and MonoQ, then captured on protein A agarose beads carrying anti-ICE antibody
TEST_PROTOCOL: Inhibition of ICE hydrolysis of CBZ-Val-Ala-Asp-pNA
Assay type: biochemical
CONDITION_INFO: substrate CBZ-Val-Ala-Asp-pNA
Where no end group is shown, it is not given here.
PROPERTY_NAME: Ki (µM)
Express your answer in µM, writing the number without its unit.

SUBSTANCE | PROPERTY_NAME | READOUT_NUMBER
Ac-YVHDA-NH2 [p48, Ac-Tyr-Val-His-Asp-Ala(SEQ ID NO:4)-NH2] | Ki | 1600

stdin: Would you kindly share the measured Ki for H-NEAYVHDAPVRSLN [p70] ?
stdout: 460

----------
TEST_SYSTEM: interleukin 1β converting enzyme (ICE) (Homo sapiens, UniProt P29466)
Construct: ICE activity was purified from THP-1 cell lysates by three chromatographic steps; endogenous in cells; host or cells: THP-1 (ATCC-TIB 202) human monocyte cell line; Lysate was purified over G25, Q-Sepharose and MonoQ, then captured on protein A agarose beads carrying anti-ICE antibody
TEST_PROTOCOL: Spectrophotometric hydrolysis of pNA substrates by immobilized ICE (release of pNA at 405 nM)
Format: biochemical
CONDITION_INFO: second of two rate values; 25° C., pH 7, 405 nM; condition that separates the two values not given
Where a SMILES comes first, the peptide text is derived from it. The star is where a group is joined. pNA = O=[N+]([O-])c1ccc(N*)cc1; Cbz = O=C(OCc1ccccc1)*; Boc = CC(C)(C)OC(=O)*
PROPERTY_NAME: Increase In Absorbence Rates (mOD/min), second value
The reply should consist of the numeric value with the unit placed after it.

Answered examples (3):
MOLECULE | TEST_SYSTEM | RESULT
CC(=O)N[C@H](C(=O)N[C@@H](C)C(=O)N[C@@H](CC(=O)O)C(=O)Nc1ccc([N+](=O)[O-])cc1)C(C)C [Example 5, AcValAlaAsp-p-nitroanilide] (Ac-Val-Ala-Asp-pNA) | interleukin 1β converting enzyme (ICE) (Homo sapiens, UniProt P29466) | 0.08 mOD/min
CC(C)[C@H](NC(=O)OC(C)(C)C)C(=O)N[C@@H](C)C(=O)N[C@@H](CC(=O)O)C(=O)Nc1ccc([N+](=O)[O-])cc1 [Example 4, t-BOCValAlaAsp-p-nitroanilide] (Boc-Val-Ala-Asp-pNA) | interleukin 1β converting enzyme (ICE) (Homo sapiens, UniProt P29466) | 0.10 mOD/min
CC(C)[C@H](NC(=O)OCc1ccccc1)C(=O)N[C@@H](C)C(=O)N[C@@H](CC(=O)O)C(=O)Nc1ccc([N+](=O)[O-])cc1 [Example 6, CBZValAlaAsp-p-nitroanilide] (Cbz-Val-Ala-Asp-pNA) | interleukin 1β converting enzyme (ICE) (Homo sapiens, UniProt P29466) | 0.16 mOD/min

Then this molecule:
stdin: Which Increase In Absorbence Rates (mOD/min), second value is listed for CC(=O)N[C@@H](Cc1ccc(O)cc1)C(=O)N[C@H](C(=O)N[C@@H](C)C(=O)N[C@@H](CC(=O)O)C(=O)Nc1ccc([N+](=O)[O-])cc1)C(C)C ?
stdout: 0.17 mOD/min

----------
TEST_SYSTEM: interleukin 1β converting enzyme (ICE) (Homo sapiens)
Construct: ICE activity was purified from THP-1 cell lysates by three chromatographic steps; endogenous in cells; host or cells: THP-1 (ATCC-TIB 202) human monocyte cell line; Lysate was purified over G25, Q-Sepharose and MonoQ, then captured on protein A agarose beads carrying anti-ICE antibody
TEST_PROTOCOL: Spectrophotometric hydrolysis of pNA substrates by immobilized ICE (release of pNA at 405 nM)
Format: biochemical
CONDITION_INFO: pNA substrate 0.01 to 1.5 mM, 25° C., pH 7
Where a SMILES comes first, the peptide text is derived from it. The star is where a group is joined. pNA = O=[N+]([O-])c1ccc(N*)cc1; Cbz = O=C(OCc1ccccc1)*; Boc = CC(C)(C)OC(=O)*
PROPERTY_NAME: Vmax (Rates) mOD/min (mOD/min)
Only the number, expressed in mOD/min, is required.

// known answers, use as guide
COMPOUND | READOUT_NUMBER
CC(=O)N[C@@H](Cc1ccc(O)cc1)C(=O)N[C@H](C(=O)N[C@@H](C)C(=O)N[C@@H](CC(=O)O)C(=O)Nc1ccc([N+](=O)[O-])cc1)C(C)C | 0.27
CC(=O)N[C@H](C(=O)N[C@@H](C)C(=O)N[C@@H](CC(=O)O)C(=O)Nc1ccc([N+](=O)[O-])cc1)C(C)C [Example 5, AcValAlaAsp-p-nitroanilide] (Ac-Val-Ala-Asp-pNA) | 0.25
CC(C)[C@H](NC(=O)OC(C)(C)C)C(=O)N[C@@H](C)C(=O)N[C@@H](CC(=O)O)C(=O)Nc1ccc([N+](=O)[O-])cc1 [Example 4, t-BOCValAlaAsp-p-nitroanilide] (Boc-Val-Ala-Asp-pNA) | 0.24

Next compound, Vmax (Rates) mOD/min to be filled in.
stdin: Notebook entry, interleukin 1β converting enzyme (ICE) (Homo sapiens) assay: Vmax (Rates) mOD/min of CC(C)[C@H](NC(=O)OCc1ccccc1)C(=O)N[C@@H](C)C(=O)N[C@@H](CC(=O)O)C(=O)Nc1ccc([N+](=O)[O-])cc1 [Example 6, CBZValAlaAsp-p-nitroanilide] (Cbz-Val-Ala-Asp-pNA) = ?
stdout: 0.21
